System: NCI-H1703
PROTOCOL_TEXT: relative viability (nuclei count vs DMSO), 5 days (fraction); higher = more cells survive
PROTOCOL_CONDITIONS: first compound 0.005 µM
Can you tell me relative viability for the items I'm about to list?

Return reported relative viability; argument: Nc1ccn([C@@H]2O[C@H](CO)[C@@H](O)[C@@H]2O)c(=O)n1 [Cytarabine] + NC(=O)Nc1cc(-c2cccc(F)c2)sc1C(=O)N[C@H]1CCCNC1 [AZD7762] (partner 0.2 µM)
0.108

What do you get for COc1cc2nccc(Oc3ccc(NC(=O)Nc4cc(C)on4)c(Cl)c3)c2cc1OC [Tivozanib] + O=C(c1cc(Cc2n[nH]c(=O)c3ccccc23)ccc1F)N1CCN(C(=O)C2CC2)CC1 [Olaparib] (partner 8 µM) ?
0.216

# repeat for COc1cc2nccc(Oc3ccc(NC(=O)Nc4cc(C)on4)c(Cl)c3)c2cc1OC [Tivozanib] + COc1cc2c(Oc3ccc(NC(=O)C4(C(=O)Nc5ccc(F)cc5)CC4)cc3F)ccnc2cc1OCCCN1CCOCC1 [Foretinib] (partner 0.25 µM)
0.335

For Nc1ccn([C@@H]2O[C@H](CO)[C@@H](O)[C@@H]2O)c(=O)n1 [Cytarabine] + COc1cc2c(Oc3ccc(NC(=O)C4(C(=O)Nc5ccc(F)cc5)CC4)cc3F)ccnc2cc1OCCCN1CCOCC1 [Foretinib] (partner 0.25 µM) then?
0.251

----------
Kindly supply the reported relative viability values for the records listed here.
Tested on: NCI-H647
PROTOCOL_TEXT: relative viability (nuclei count vs DMSO), 5 days (fraction); higher = more cells survive
PROTOCOL_CONDITIONS: first compound 0.05 µM
When you answer, write just the number.

Can you share its relative viability? I mean this compound: COc1cc2nccc(Oc3ccc(NC(=O)Nc4cc(C)on4)c(Cl)c3)c2cc1OC [Tivozanib] + Cc1cc(Nc2cc(N3CCN(C)CC3)nc(Sc3ccc(NC(=O)C4CC4)cc3)n2)n[nH]1 [Tozasertib] (partner 0.1 µM)
0.263

What about COc1cc2nccc(Oc3ccc(NC(=O)Nc4cc(C)on4)c(Cl)c3)c2cc1OC [Tivozanib] + CS(=O)(=O)N1CCN(Cc2cc3nc(-c4cccc5[nH]ncc45)nc(N4CCOCC4)c3s2)CC1 [Pictilisib] (partner 1 µM) ?
0.402

----------
System: LK-2
PROTOCOL_TEXT: relative viability (nuclei count vs DMSO), 5 days (fraction); higher = more cells survive
PROTOCOL_CONDITIONS: first compound 4 µM
Provide the recorded relative viability for the entries that follow.

What value of relative viability on LK-2 does Cc1sc2c(c1C)C(c1ccc(Cl)cc1)=N[C@@H](CC(=O)OC(C)(C)C)c1nnc(C)n1-2 [JQ1] + CC(=O)Nc1cccc(-n2c(=O)n(C3CC3)c(=O)c3c(Nc4ccc(I)cc4F)n(C)c(=O)c(C)c32)c1 [Trametinib] (partner 0.02 µM) have?
0.218

Entry Cc1sc2c(c1C)C(c1ccc(Cl)cc1)=N[C@@H](CC(=O)OC(C)(C)C)c1nnc(C)n1-2 [JQ1] + Cc1cc(Nc2cc(N3CCN(C)CC3)nc(Sc3ccc(NC(=O)C4CC4)cc3)n2)n[nH]1 [Tozasertib] (partner 0.1 µM) please
0.166

Record: Cc1sc2c(c1C)C(c1ccc(Cl)cc1)=N[C@@H](CC(=O)OC(C)(C)C)c1nnc(C)n1-2 [JQ1] + Nc1ncn([C@H]2C[C@H](O)[C@@H](CO)O2)c(=O)n1 [Decitabine] (partner 2 µM)
0.129

Also Cc1sc2c(c1C)C(c1ccc(Cl)cc1)=N[C@@H](CC(=O)OC(C)(C)C)c1nnc(C)n1-2 [JQ1] + COc1cc2c(Oc3ccc(NC(=O)C4(C(=O)Nc5ccc(F)cc5)CC4)cc3F)ccnc2cc1OCCCN1CCOCC1 [Foretinib] (partner 0.25 µM) ?
0.221

Query Cc1sc2c(c1C)C(c1ccc(Cl)cc1)=N[C@@H](CC(=O)OC(C)(C)C)c1nnc(C)n1-2 [JQ1] + COc1cccc2cc(-c3nc([C@H]4CC[C@H](C(=O)O)CC4)n4ncnc(N)c34)[nH]c12 [OSI-027] (partner 0.5 µM) next
0.143
